# EXPERIMENTAL SYSTEM: PIK3CA (human)
# ASSAY PROTOCOL: Enzyme Assay
MEASURED QUANTITY: IC50 (nM)

Worked cases, IC50 given:
| COMPOUND | U | VALUE |
| --- | --- | --- |
| Nc1cc(C(F)(F)F)c(-c2cc(N3CCN(c4ccccc4)C3=O)nc(N3CCOCC3)n2)cn1 | nM | 91 |
| Nc1ncc(-c2cc(N3CCOC(c4ccccc4)C3)nc(N3CCOCC3)n2)c(C(F)(F)F)n1 (centres undefined) | nM | 15 |

[I] Nc1cc(C(F)(F)F)c(-c2cc(N3CCC(=O)CC3)nc(N3CCOCC3)n2)cn1
[II] Nc1cc(C(F)(F)F)c(-c2cc(N3CCCCC3=O)nc(N3CCOCC3)n2)cn1
Problem: Given the entries I and II , determine which has the lower reported IC50. Return value: the label identifying the chosen record.
II
(II: 94 nM, I: 327 nM)

* * *

# EXPERIMENTAL SYSTEM: UniProt O00329
# ASSAY PROTOCOL: Enzyme Assay
pIC50: −log10 of the molar value.
MEASURED QUANTITY: pIC50

| COMPOUND | VALUE |
| --- | --- |
| Nc1cc(C(F)(F)F)c(-c2cc(N3CCCCC3=O)nc(N3CCOCC3)n2)cn1 | 6.07 |
| Nc1cc(C(F)(F)F)c(-c2cc(N3CCC(=O)CC3)nc(N3CCOCC3)n2)cn1 | 5.91 |
| Nc1ncc(-c2cc(N3CCOC(c4ccccc4)C3)nc(N3CCOCC3)n2)c(C(F)(F)F)n1 (stereo not given) | 6.96 |

[A] Nc1ncc(-c2cc(N3CCOCC3)nc(N3CCOCC3)n2)c(C(F)(F)F)n1
[B] Nc1cc(C(F)(F)F)c(-c2cc(N3CCN(c4ccccc4)C3=O)nc(N3CCOCC3)n2)cn1
Which of the two gives a bigger number for pIC50: A or B ? Your answer should be the label attached to the chosen record.
A
(A: 7.62, B: 5.70)

* * *

# EXPERIMENTAL SYSTEM: PIK3CB (Human)
# ASSAY PROTOCOL: Enzyme Assay
pIC50: −log10 of the molar value.
MEASURED QUANTITY: pIC50

The examples below pair each entry with its known result.
| COMPOUND | VALUE |
| --- | --- |
| Nc1cc(C(F)(F)F)c(-c2cc(N3CCN(c4ccccc4)C3=O)nc(N3CCOCC3)n2)cn1 | 6.63 |
| Nc1ncc(-c2cc(N3CCOC(c4ccccc4)C3)nc(N3CCOCC3)n2)c(C(F)(F)F)n1 (stereo not given) | 7.57 |
| Nc1cc(C(F)(F)F)c(-c2cc(N3CCC(=O)CC3)nc(N3CCOCC3)n2)cn1 | 5.97 |

[A] CC[C@H]1[C@H](c2ccc(OC)cc2)OC(=O)N1c1cc(-c2cnc(N)nc2C(F)(F)F)nc(N2CCOCC2)n1
[B] Nc1cc(C(F)(F)F)c(-c2cc(N3CCCCC3=O)nc(N3CCOCC3)n2)cn1
I need your help: which of the pair A , B has higher pIC50? Answer format: the label of the selected item.
A

* * *

# EXPERIMENTAL SYSTEM: PIK3CD (Human)
# ASSAY PROTOCOL: Cell-Based Assay
# EXPERIMENTAL PARAMETERS: rat-1
MEASURED QUANTITY: IC50 (nM)

Take a look at these entries with their results.
| MOLECULE | U | IC50 |
| --- | --- | --- |
| Nc1cc(C(F)(F)F)c(-c2cc(N3CCCCC3=O)nc(N3CCOCC3)n2)cn1 | nM | 1040 |
| COCCOc1ccc([C@@H]2OC(=O)N(c3cc(-c4cnc(N)nc4C(F)(F)F)nc(N4CCOCC4)n3)[C@H]2CO)cc1 | nM | 4 |

[1] Nc1ncc(-c2cc(N3CCOCC3)nc(N3CCOCC3)n2)c(C(F)(F)F)n1
[2] Nc1cc(C(F)(F)F)c(-c2cc(N3CCC(=O)CC3)nc(N3CCOCC3)n2)cn1
Identify the entry with the smaller IC50: 1 or 2 . Your choice should be expressed through its label.
1

* * *

# EXPERIMENTAL SYSTEM: UniProt:P42338
# Sequence (P42338 whole entry, looked up): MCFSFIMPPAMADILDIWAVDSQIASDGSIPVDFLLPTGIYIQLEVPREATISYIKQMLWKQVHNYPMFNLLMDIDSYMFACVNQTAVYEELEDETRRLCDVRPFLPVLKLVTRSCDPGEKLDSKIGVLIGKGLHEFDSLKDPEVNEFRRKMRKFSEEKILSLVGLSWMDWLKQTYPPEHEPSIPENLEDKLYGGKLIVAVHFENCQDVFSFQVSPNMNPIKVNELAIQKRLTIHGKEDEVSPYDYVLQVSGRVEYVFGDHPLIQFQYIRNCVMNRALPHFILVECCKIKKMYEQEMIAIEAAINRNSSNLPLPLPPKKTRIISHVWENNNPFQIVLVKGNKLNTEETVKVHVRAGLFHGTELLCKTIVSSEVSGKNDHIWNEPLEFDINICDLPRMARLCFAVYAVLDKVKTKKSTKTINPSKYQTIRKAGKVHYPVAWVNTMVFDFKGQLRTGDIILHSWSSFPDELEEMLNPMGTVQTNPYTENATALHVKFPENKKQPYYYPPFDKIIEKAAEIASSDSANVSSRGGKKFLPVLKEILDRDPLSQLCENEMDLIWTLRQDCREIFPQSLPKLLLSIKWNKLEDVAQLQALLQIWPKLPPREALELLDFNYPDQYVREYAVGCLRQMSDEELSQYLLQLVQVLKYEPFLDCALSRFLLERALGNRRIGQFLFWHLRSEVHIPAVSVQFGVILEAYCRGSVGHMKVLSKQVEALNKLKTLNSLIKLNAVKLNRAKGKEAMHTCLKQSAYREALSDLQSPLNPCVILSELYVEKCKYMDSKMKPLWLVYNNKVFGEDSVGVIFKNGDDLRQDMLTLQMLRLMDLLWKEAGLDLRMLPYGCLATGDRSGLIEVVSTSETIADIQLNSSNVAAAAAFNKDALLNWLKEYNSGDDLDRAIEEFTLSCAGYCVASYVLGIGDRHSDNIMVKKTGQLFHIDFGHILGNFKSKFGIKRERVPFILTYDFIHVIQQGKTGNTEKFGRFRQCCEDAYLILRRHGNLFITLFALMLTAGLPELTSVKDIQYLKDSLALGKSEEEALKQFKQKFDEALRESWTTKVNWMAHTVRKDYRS
# ASSAY PROTOCOL: Cell-Based Assay
# EXPERIMENTAL PARAMETERS: rat-1
pIC50: −log10 of the molar value.
MEASURED QUANTITY: pIC50

| MOLECULE SMILES | VALUE |
| --- | --- |
| Nc1cc(C(F)(F)F)c(-c2cc(N3CCN(c4ccccc4)C3=O)nc(N3CCOCC3)n2)cn1 | 5.80 |

[A] Nc1cc(C(F)(F)F)c(-c2cc(N3CCCCC3=O)nc(N3CCOCC3)n2)cn1
[B] Nc1cc(C(F)(F)F)c(-c2cc(N3CCC(=O)CC3)nc(N3CCOCC3)n2)cn1
Compare reported pIC50 values for A and B . Which is lower? Your choice should be expressed through its label.
B

* * *

# EXPERIMENTAL SYSTEM: PIK3CD (Human) (UniProt O00329)
# Sequence (O00329 whole entry, looked up): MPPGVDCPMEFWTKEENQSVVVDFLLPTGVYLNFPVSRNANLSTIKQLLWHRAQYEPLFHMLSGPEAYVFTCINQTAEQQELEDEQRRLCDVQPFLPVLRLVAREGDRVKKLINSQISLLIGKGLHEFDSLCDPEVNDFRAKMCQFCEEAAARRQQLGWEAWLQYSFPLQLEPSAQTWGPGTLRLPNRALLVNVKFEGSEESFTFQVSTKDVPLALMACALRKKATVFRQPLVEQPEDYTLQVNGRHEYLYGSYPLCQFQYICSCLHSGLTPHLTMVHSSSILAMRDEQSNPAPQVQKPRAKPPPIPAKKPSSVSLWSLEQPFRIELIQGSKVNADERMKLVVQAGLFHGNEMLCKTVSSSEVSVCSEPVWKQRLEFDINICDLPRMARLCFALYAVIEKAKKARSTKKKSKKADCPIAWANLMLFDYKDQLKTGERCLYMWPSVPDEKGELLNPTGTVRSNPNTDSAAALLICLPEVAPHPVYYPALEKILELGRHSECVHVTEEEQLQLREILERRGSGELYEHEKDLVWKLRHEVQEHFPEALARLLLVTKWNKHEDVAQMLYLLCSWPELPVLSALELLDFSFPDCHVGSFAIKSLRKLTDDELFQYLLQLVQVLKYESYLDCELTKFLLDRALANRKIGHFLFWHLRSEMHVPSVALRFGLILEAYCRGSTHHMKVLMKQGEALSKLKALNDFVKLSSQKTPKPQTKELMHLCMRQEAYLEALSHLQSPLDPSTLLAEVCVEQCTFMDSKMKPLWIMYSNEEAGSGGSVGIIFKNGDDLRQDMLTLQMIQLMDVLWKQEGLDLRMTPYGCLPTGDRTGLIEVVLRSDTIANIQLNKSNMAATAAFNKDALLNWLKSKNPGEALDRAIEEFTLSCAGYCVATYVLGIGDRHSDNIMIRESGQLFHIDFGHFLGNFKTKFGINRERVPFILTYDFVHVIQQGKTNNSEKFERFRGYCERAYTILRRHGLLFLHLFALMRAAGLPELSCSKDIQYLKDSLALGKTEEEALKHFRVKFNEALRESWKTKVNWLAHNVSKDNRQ
# ASSAY PROTOCOL: Cell-Based Assay
# EXPERIMENTAL PARAMETERS: rat-1
MEASURED QUANTITY: pIC50
pIC50 here: minus log base 10 of the concentration, concentration in moles per litre.

| COMPOUND | VALUE |
| --- | --- |
| Nc1cc(C(F)(F)F)c(-c2cc(N3CCN(c4ccccc4)C3=O)nc(N3CCOCC3)n2)cn1 | 5.83 |

--- query ---
State its pIC50: Nc1ncc(-c2cc(N3CCOC(c4ccccc4)C3)nc(N3CCOCC3)n2)c(C(F)(F)F)n1 (stereo not drawn)
6.98
